# Test system: Hs-578T
# Measurement description: NCI tumour cell line growth inhibition, 48 h
Active and inactive are the calls of the source. No stated cut-off is given here; in the data, active = GI50 up to about 1.1 µM and inactive = higher.
Quantity kind: GI50

[[record]]
molecule = "CC(C)C(N)(C(=O)O)c1ccccc1 (stereo unspecified)"
assayed_system = "Hs-578T"
reported_result = "> 100 µM (inactive)"

[[record]]
molecule = "CCOC(=O)/C=C/[C@H](O[Si](CC)(CC)CC)C(C)(C)C"
assayed_system = "Hs-578T"
reported_result = "> 100 µM (inactive)"

[[record]]
molecule = "CCN1CCc2sc3nc(S)n(C)c(=O)c3c2C1"
assayed_system = "Hs-578T"
reported_result = "> 100 µM (inactive)"

[[record]]
molecule = "N/C(=N\\c1ccc(Cl)cc1)c1ccccc1N"
assayed_system = "Hs-578T"
reported_result = "> 100 µM (inactive)"

[[record]]
molecule = "COc1ccc(COCC[C@H](C)OC2OC(CO[Si](C)(C)C(C)(C)C)C(O)C(O)C2O)cc1 (stereo partly specified)"
assayed_system = "Hs-578T"
reported_result = "> 100 µM (inactive)"

[[record]]
molecule = "O=C(O)c1ccccc1/C=N/N=C1NCCN1"
assayed_system = "Hs-578T"
reported_result = "> 100 µM (inactive)"

[[record]]
molecule = "[N-]=[N+]=Nc1cc(=O)n2c3c(cccc13)CCC2"
assayed_system = "Hs-578T"
reported_result = "> 100 µM (inactive)"

[[record]]
molecule = "CCOC(=O)C12CC(C)=C(C)CC1CCCc1ccccc12 (stereo unspecified)"
assayed_system = "Hs-578T"
reported_result = "36.1 µM (inactive)"

[[record]]
molecule = "O=c1[nH]c2cc([N+](=O)[O-])c(N(CCO)CCO)c([N+](=O)[O-])c2[nH]1"
assayed_system = "Hs-578T"
reported_result = "53.2 µM (inactive)"

[[record]]
molecule = "COC(=O)c1cc(C)ccc1/C=C1\\Cc2cccc(C)c2C1=O"
assayed_system = "Hs-578T"
reported_result = "57.5 µM (inactive)"

[[record]]
molecule = "Cc1c2c(c(C)n1-c1ccccc1)C(=O)N(CCCCN1CCN(c3ccccc3)CC1)C2=O"
assayed_system = "Hs-578T"
reported_result = "20.2 µM (inactive)"


====

# Test system: MCF7
# Measurement description: NCI tumour cell line growth inhibition, 48 h
Active and inactive are the calls of the source. Cut-off read from the data, not from the text of the source: active = GI50 up to about 1.1 µM and inactive = higher.
Outcome codes: active, inactive

[[record]]
molecule = "O=C(O)Cn1ccc(=O)c2cc([N+](=O)[O-])ccc21"
assayed_system = "MCF7"
category = "inactive"

[[record]]
molecule = "COC(=O)C1=CC[C@@H]2C(C(=O)O)=CO[C@@H](OC3OC(CO)C(O)C(O)C3O)[C@H]12 (stereo not given in full)"
assayed_system = "MCF7"
category = "inactive"

[[record]]
molecule = "SCCCSCCSCCCSCCS"
assayed_system = "MCF7"
category = "inactive"

[[record]]
molecule = "Cc1ccc(Nc2cc(=O)[nH]c(=S)[nH]2)cc1"
assayed_system = "MCF7"
category = "inactive"

[[record]]
molecule = "CCC1OC(=O)C(C)C(OC2CC(C)(O)C(O)C(C)O2)C(C)C(O)C(C)(O)CC(C)C(=O)C(C)C(O)C1C (stereo not given)"
assayed_system = "MCF7"
category = "inactive"

[[record]]
molecule = "COC(=O)CNC(=O)CCSc1nnc(COc2ccc(Cl)cc2)n1-c1ccccc1"
assayed_system = "MCF7"
category = "inactive"

[[record]]
molecule = "NC(=O)C(c1ccccc1)N1OC2C(=O)N(c3ccccc3)C(=O)C2C1c1c2ccccc2c(Cl)c2ccccc12 (stereo not given)"
assayed_system = "MCF7"
category = "inactive"

[[record]]
molecule = "CCC/C=C/C=C\\C(=O)O[C@@H]1[C@@H](C)[C@]2(O)[C@@H]3C=C(C)C(=O)[C@H]3CC(COC(C)=O)=C[C@H]2[C@@H]2C(C)(C)[C@]12OC(C)=O"
assayed_system = "MCF7"
category = "inactive"

[[record]]
molecule = "C[C@]12CCC3c4ccc(O)cc4CC[C@H]3C1CC(=O)N(N)C2=O (stereo not given in full)"
assayed_system = "MCF7"
category = "inactive"

[[record]]
molecule = "O=C1C[C@H](c2ccccc2)C2(C(=O)c3ccccc3C2=O)[C@@H](c2ccccc2)C1"
assayed_system = "MCF7"
category = "inactive"

[[record]]
molecule = "N#CC1N(C(=O)c2ccc(F)cc2)c2ccccc2N1C(=O)c1ccc(F)cc1"
assayed_system = "MCF7"
category = "inactive"

[[record]]
molecule = "C=CCC(C(=O)Nc1cccc2nc[nH]c12)C(=O)OCC (stereo not given)"
assayed_system = "MCF7"
category = "inactive"

[[record]]
molecule = "CCc1ncnc2cc(OCC3CO3)c(OC)cc12 (stereo not given)"
assayed_system = "MCF7"
category = "active"

[[record]]
molecule = "CCOC(=O)C1=CCOc2cc(N(C)C)ccc21"
assayed_system = "MCF7"
category = "inactive"

[[record]]
molecule = "COc1ccc(N2C(=O)/C(=C/c3ccc(N(CCC#N)CCC#N)cc3)N=C2c2ccccc2)cc1"
assayed_system = "MCF7"
category = "inactive"

[[record]]
molecule = "O=c1[nH]c2cc([N+](=O)[O-])c(N(CCO)CCO)c([N+](=O)[O-])c2[nH]1"
assayed_system = "MCF7"
category = "inactive"

[[record]]
molecule = "NC1C/C(=N\\O)c2c(Cl)sc(Cl)c21 (stereo not given)"
assayed_system = "MCF7"
category = "inactive"

[[record]]
molecule = "CCOC(=O)C12CCC(c3c(C)cccc3C)(O1)C(C(=O)OC)=C2C(=O)OC (stereo not given)"
assayed_system = "MCF7"
category = "inactive"

[[record]]
molecule = "CC1(C)C=C(/C=N/Nc2ccc(Br)cc2)C(C#N)=C(O)C1(C#N)C#N"
assayed_system = "MCF7"
category = "inactive"

[[record]]
molecule = "CCC1(O)CC2CC(=O)OC2C1O (stereo not given)"
assayed_system = "MCF7"
category = "inactive"

